Origin of the recorded values: ChEMBL document CHEMBL5058577

test system: Fibroblast; assay: Multiplex assay against human fibroblast; assay type: toxicity, cell-based; details: 48 h, 1 µM, compound concentration 1 uM, replicate 2
QUANTITY: Population Mitochondria Different-Phenotype (%)
Give the value, in units of %, as a plain number.

COc1cc(C(=O)N(CCCc2ccccc2)Cc2ccc(CC(=O)O)cc2)cc(OC)c1C ... 9

Can you look up the measured Population Mitochondria Different-Phenotype (%) of CN1CCN2c3ncccc3Cc3ccccc3C2C1 (stereo not given) for me?
12

Can you look up the measured Population Mitochondria Different-Phenotype (%) of "COc1cc(NC(=O)CCN2CCC(OC(=O)Nc3ccccc3-c3ccccc3)CC2)c(Cl)cc1CNC[C@H](O)c1ccc(O)c2[nH]c(=O)ccc12" for me?
14

Can you look up the measured Population Mitochondria Different-Phenotype (%) of "O=C(O)c1cc2ccccc2c(Cc2c(O)c(C(=O)O)cc3ccccc23)c1O" for me?
8

Can you look up the measured Population Mitochondria Different-Phenotype (%) of "O=C1COc2nccc(-c3ccccc3F)c2CN1Cc1cc(C(F)(F)F)cc(C(F)(F)F)c1" for me?
1

Can you look up the measured Population Mitochondria Different-Phenotype (%) of "Cc1nc2ccc(Oc3ccc(F)cc3)cc2c(=O)n1C[C@H]1CCCN(C(C)C)C1.Cl" for me?
13

Can you look up the measured Population Mitochondria Different-Phenotype (%) of "CC1(COc2ccc3c(c2)ncn3-c2ccc3cccc(N4CCC(N)CC4)c3n2)COC1" for me?
7

Can you look up the measured Population Mitochondria Different-Phenotype (%) of "CN(C)CCCc1cc(C(=O)Nc2ccc(-c3ccncc3)cc2)ccc1O.Cl.Cl" for me?
5

Can you look up the measured Population Mitochondria Different-Phenotype (%) of Cc1ccc(C(C)(O)c2nc3ccccc3s2)c(C)c1 (stereo not given) for me?
6

Can you look up the measured Population Mitochondria Different-Phenotype (%) of Cc1ccccc1C(=O)Nc1ccc(C(=O)N2CCCC(N(C)C)c3ccccc32)cc1.Cl (stereo not given) for me?
5

* * *

In this section, each of the molecules is paired with its reported Population Apoptotic (%).
tested on: HEK-293T; test: Multiplex assay against HEK293T; assay type: toxicity, cell-based; conditions: human, 48 h, 1 µM, compound concentration 1 uM, replicate 2
Give the value, in units of %, as a plain number.

Take a look at these entries with their results.
Cc1ccccc1C(=O)Nc1ccc(C(=O)N2CCCC(N(C)C)c3ccccc32)cc1.Cl (stereo not given) ... 34
N#Cc1c(N)nc(SCc2csc(-c3ccc(Cl)cc3)n2)c(C#N)c1-c1ccc(OCCO)cc1 [CAPADENOSON] ... 32

Can you look up the measured Population Apoptotic (%) of "CN1CCN(c2nc3cc(C(F)(F)F)ccc3n3cccc23)CC1.O=C(O)/C=C\C(=O)O.O=C(O)/C=C\C(=O)O" for me?
37

Can you look up the measured Population Apoptotic (%) of c1cc(OCCCN2CCCCC2)ccc1CN1CCCCC1 [JNJ-5207852] for me?
23

Can you look up the measured Population Apoptotic (%) of C[C@H](NC(=O)c1c(C(F)F)nn(C)c1Oc1cccc(C(F)(F)F)c1)c1ccc(C(=O)O)cc1 [PALUPIPRANT] for me?
21

Can you look up the measured Population Apoptotic (%) of Cc1ccc(/C(=C\CN2CCCC2)c2ccccn2)cc1 [TRIPROLIDINE] for me?
37

Can you look up the measured Population Apoptotic (%) of "COc1ccccc1N1CCN(CCCCNC(=O)c2ccc3ccccc3c2)CC1.Cl" for me?
46

Can you look up the measured Population Apoptotic (%) of O=C(NCC(=O)N1CC[C@H](N[C@H]2CC[C@@](O)(c3ccc(-c4ncccn4)cn3)CC2)C1)c1cccc(C(F)(F)F)c1 [PF-4136309] for me?
27

Can you look up the measured Population Apoptotic (%) of CCCN1CCC[C@@H]2Cc3n[nH]cc3C[C@H]21.Cl [QUINPIROLE HYDROCHLORIDE] for me?
33

* * *

system: U2OS; test: Multiplex assay against U2OS; type: toxicity, cell-based; details: human, 12 h, 10 µM, compound concentration 10 uM, replicate 2
In this section, each of the molecules is paired with its reported Population Fragmented Nuclei (%).
Give the value, in units of %, as a plain number.

Take a look at these entries with their results.
C[C@H](NC(=O)c1c(C(F)F)nn(C)c1Oc1cccc(C(F)(F)F)c1)c1ccc(C(=O)O)cc1 ... 13
CN1CCN2c3ncccc3Cc3ccccc3C2C1 (stereo not drawn) ... 13
CN(C)c1ccnc2sc3c(=O)n(N4CCCCCC4)cnc3c12 ... 18
Cc1ccc(F)cc1C(=O)Nc1ccc(C(=O)N2Cc3cccn3Cc3ccccc32)c(Cl)c1 ... 13
c1cc(OCCCN2CCCCC2)ccc1CN1CCCCC1 ... 13
COc1cc(C(=O)N(CCCc2ccccc2)Cc2ccc(CC(=O)O)cc2)cc(OC)c1C ... 15
CC1(COc2ccc3c(c2)ncn3-c2ccc3cccc(N4CCC(N)CC4)c3n2)COC1 ... 37
C[C@H]1[C@H]2CC[C@H]3[C@@H]4CC=C5C[C@@H](N(C)C)CC[C@]5(C)[C@H]4CC[C@]23CN1C ... 17

Could you share what Population Fragmented Nuclei (%) was measured for "COc1c(C)cc(NC(=O)c2nn(Cc3ccc(F)cc3)c3c2CN(C(=O)c2ccc[nH]2)C[C@]3(C)C(N)=O)cc1C" , tested on U2OS?
11

Could you share what Population Fragmented Nuclei (%) was measured for "Cc1ccc(/C(=C\CN2CCCC2)c2ccccn2)cc1" , tested on U2OS?
15

Could you share what Population Fragmented Nuclei (%) was measured for "CCOc1c2c(c(OCC)c3ncccc13)CN(c1ccc(CS(=O)(=O)NC(=O)Cc3ccccc3OC)cc1C)C2=O" , tested on U2OS?
21

Could you share what Population Fragmented Nuclei (%) was measured for "O=C1COc2nccc(-c3ccccc3F)c2CN1Cc1cc(C(F)(F)F)cc(C(F)(F)F)c1" , tested on U2OS?
16

Could you share what Population Fragmented Nuclei (%) was measured for "O=C(O)Cc1ccccc1Nc1c(Cl)cccc1Cl" , tested on U2OS?
14

Could you share what Population Fragmented Nuclei (%) was measured for "O=C(NCCO)c1cccc(-c2cc(Nc3ccc(OC(F)(F)F)cc3)ncn2)c1" , tested on U2OS?
20

Could you share what Population Fragmented Nuclei (%) was measured for Cc1ccc(C(C)(O)c2nc3ccccc3s2)c(C)c1 (stereo not drawn) , tested on U2OS?
18

Could you share what Population Fragmented Nuclei (%) was measured for "CC(=O)NCCc1c(Cc2ccccc2)[nH]c2ccccc12" , tested on U2OS?
13

Could you share what Population Fragmented Nuclei (%) was measured for "CSCC[C@H](NC=O)C(=O)N[C@@H](CC(C)C)C(=O)N[C@@H](Cc1ccccc1)C(=O)O" , tested on U2OS?
16

Could you share what Population Fragmented Nuclei (%) was measured for "CN1CCN(c2nc3cc(C(F)(F)F)ccc3n3cccc23)CC1.O=C(O)/C=C\C(=O)O.O=C(O)/C=C\C(=O)O" , tested on U2OS?
25

* * *

In this section, each of the molecules is paired with its reported Population Apoptotic (%).
test system: HEK-293T; assay: Multiplex assay against HEK293T; assay type: toxicity, cell-based; details: human, 24 h, 10 µM, compound concentration 10 uM, replicate 2
Give the value, in units of %, as a plain number.

Take a look at these entries with their results.
Cc1ccc(F)cc1C(=O)Nc1ccc(C(=O)N2Cc3cccn3Cc3ccccc32)c(Cl)c1 ... 58
CSCC[C@H](NC=O)C(=O)N[C@@H](CC(C)C)C(=O)N[C@@H](Cc1ccccc1)C(=O)O ... 36
C[C@H]1[C@H]2CC[C@H]3[C@@H]4CC=C5C[C@@H](N(C)C)CC[C@]5(C)[C@H]4CC[C@]23CN1C ... 47
CNC[C@H](O)c1ccc(O)c(O)c1 [EPINEPHRINE] ... 80
CCOc1c2c(c(OCC)c3ncccc13)CN(c1ccc(CS(=O)(=O)NC(=O)Cc3ccccc3OC)cc1C)C2=O ... 32

Can you look up the measured Population Apoptotic (%) of "O=C(NCC(=O)N1CC[C@H](N[C@H]2CC[C@@](O)(c3ccc(-c4ncccn4)cn3)CC2)C1)c1cccc(C(F)(F)F)c1" for me?
57

Can you look up the measured Population Apoptotic (%) of "CN(C)CCCc1cc(C(=O)Nc2ccc(-c3ccncc3)cc2)ccc1O.Cl.Cl" for me?
47

* * *

system: HEK-293T; assay: Multiplex assay against HEK293T; assay type: toxicity, cell-based; conditions: human, 48 h, 10 µM, compound concentration 10 uM, replicate 1
In this section, each of the compounds is paired with its reported Population Tubulin-Different-Phenotype (%).
Give the value, in units of %, as a plain number.

O=C(NCCO)c1cccc(-c2cc(Nc3ccc(OC(F)(F)F)cc3)ncn2)c1 ... 18

Can you look up the measured Population Tubulin-Different-Phenotype (%) of "O=C(NCC(=O)N1CC[C@H](N[C@H]2CC[C@@](O)(c3ccc(-c4ncccn4)cn3)CC2)C1)c1cccc(C(F)(F)F)c1" for me?
23

Can you look up the measured Population Tubulin-Different-Phenotype (%) of "N[C@@]1(C(=O)O)CO[C@H]2[C@H](C(=O)O)[C@H]21" for me?
10

Can you look up the measured Population Tubulin-Different-Phenotype (%) of CCCN1CCC[C@@H]2Cc3n[nH]cc3C[C@H]21.Cl [QUINPIROLE HYDROCHLORIDE] for me?
15

Can you look up the measured Population Tubulin-Different-Phenotype (%) of "CCCC(CCC)C(=O)O" for me?
9

Can you look up the measured Population Tubulin-Different-Phenotype (%) of "CN1CCN(c2nc3cc(C(F)(F)F)ccc3n3cccc23)CC1.O=C(O)/C=C\C(=O)O.O=C(O)/C=C\C(=O)O" for me?
44
